Target: HLA-A*02:03
Test: IEDB peptide-MHC binding, purified MHC/competitive/fluorescence; filed as Kd, often an IC50 or EC50 that approximates it; bounds were set here for any values at or beyond the usual limits of such assays
Conditions: source organism: Brucella abortus S19
observedProperty: pKd
Note on pKd: it is the negative log10 of concentration, concentration in mol/L.

In: API: value(readout= pKd, system= HLA-A*02:03, query= YWMGGTTYF )
Out: 5.37

---

Task for the reader: assign each of the following sequences its reported pKd.
Molecular target: HLA-B*40:01
Test: IEDB peptide-MHC binding, purified MHC/competitive/radioactivity; filed as Kd, often an IC50 or EC50 that approximates it; bounds were set here for any values at or beyond the usual limits of such assays
Conditions: source organism: SARS coronavirus Tor2
Just the number, please; pKd means minus log10 of the concentration in mol/L.

In: Missing value: pKd, HLA-B*40:01, entry STFVSAARQG . Fill in?
Out: 5.07

In: Form field - read-out: pKd; system: HLA-B*40:01; submitted item: REFLTRNPAW
Out: 7.30

In: Param readout = pKd; param system = HLA-B*40:01; param query = SEYKGPVTDV ; response: value
Out: 6.00

In: pKd of AEAAVKPLL on HLA-B*40:01?
Out: 8.07

In: # query: pKd | item DEDDSEPVL | system: HLA-B*40:01
Out: 6.86

In: Request: pKd, test system HLA-B*40:01, entry YENAFLPFT
Out: 5.21

In: Which pKd is reported with HLA-B*40:01 for this entry: AEVVKLPSRY ?
Out: 4.82

In: What reported pKd corresponds to YEQVVMDYL on HLA-B*40:01?
Out: 9.22

In: # query: pKd | item QELGHEDLM | system: HLA-B*40:01
Out: 5.26

---

Target: HLA-B*15:01
Assay: IEDB peptide-MHC binding, purified MHC/direct/fluorescence; filed as Kd, often an IC50 or EC50 that approximates it; bounds were set here for any values at or beyond the usual limits of such assays
Conditions: source organism: Influenza A virus (A/chicken/Hubei/wm/1997(H5N1))
observedProperty: Kd

In: What does the data say about its Kd? Entry: EKPKFLPDL
Out: ≥ 20 µM

---

Biological target: HLA-A*26:02
Assay: IEDB peptide-MHC binding, purified MHC/competitive/fluorescence; filed as Kd, often an IC50 or EC50 that approximates it; bounds were set here for any values at or beyond the usual limits of such assays
Conditions: source organism: Brucella abortus S19
pKd: −log10 of the molar value.
observedProperty: pKd

In: What measured pKd is associated with YWMGGTTYF on HLA-A*26:02?
Out: ≤ 4.70

---

Target: HLA-B*08:02
Test: IEDB peptide-MHC binding, purified MHC/direct/fluorescence; filed as Kd, often an IC50 or EC50 that approximates it; bounds were set here for any values at or beyond the usual limits of such assays
Conditions: source organism: dengue virus type 3
observedProperty: Kd

In: For the sequence ELKGMSYAM , what Kd is on record?
Out: ≥ 20 µM

---

Target: HLA-B*38:01
Test: IEDB peptide-MHC binding, purified MHC/competitive/fluorescence; filed as Kd, often an IC50 or EC50 that approximates it; bounds were set here for any values at or beyond the usual limits of such assays
Conditions: source organism: Human immunodeficiency virus 1
observedProperty: Kd

In: Look up Kd for this sequence: GTEEIRSLF
Out: ≥ 20 µM

All figures here come from the Immune Epitope Database (IEDB).
